Reported nonsense suppression is given for each of the following variants.
B1: tRNA (parent)
chain: CUCUCGGUAGCCAAGUUGGUUUAAGGCGCAAGACUUUAAUUUAUCACUACGAAAUCUUGAGAUCGGGCGUUCGACUCGCCCCCGGGAGAUUUUUUCCUCGAGCAA

# Variants of: B1
# procedure_details: nonsense suppression (GFP-seq) (ratio to wild type); higher = more function; SUP4oc tRNA, yeast GFP reporter sort-seq
This sample holds only a part of the variants without activity.

Check out these entries, answers already filled in.
C80A G86A    ≤ 0.026
G6U U58G U76C C80G    ≤ 0.026

Which nonsense suppression value is on record for U4A C11A A14U ? ≤ 0.026

Which nonsense suppression value is on record for U16C U76A A89U ? ≤ 0.026

Which nonsense suppression value is on record for C11G A13U A62C ? ≤ 0.026

Which nonsense suppression value is on record for G10U C34G U63A C81U ? ≤ 0.026

Which nonsense suppression value is on record for C29A C72A U76A ? ≤ 0.026

// provenance: the RNAGym collection of RNA variant scans (doi:10.1101/gad.245936.114)
